# Test system: Clostridium sporogenes DSM 1664
# test name: growth (OD595) fold change vs plate DMSO controls (fold change (ratio)); higher = more growth
# conditions: incubation time: 27 h, anaerobic, 37 °C
Counter-ions that a name gives are not always drawn.
measured quantity: growth
In your answer, state the number alone without any accompanying words.

Study these solved cases before continuing.
compound="CC(=O)Nc1c(I)c(NC(C)=O)c(I)c(C(=O)O)c1I [Diatrizoic acid dihydrate] (20 µM)" measured_target="Clostridium sporogenes DSM 1664" value_reported=1.28
compound="C[C@]12CC[C@@H]3c4ccc(O)cc4CC[C@H]3[C@@H]1C[C@@H](O)[C@@H]2O [Estriol] (20 µM)" measured_target="Clostridium sporogenes DSM 1664" value_reported=1.12
compound="CC(C(=O)O)c1ccc(CC2CCCC2=O)cc1 (stereo not drawn) [Loxoprofen] (20 µM)" measured_target="Clostridium sporogenes DSM 1664" value_reported=1.24
compound="CC(C)NCC(O)c1ccc(O)c(O)c1 (single isomer, unassigned; (+)) [(+) Isoproterenol-(+)-bitartrate salt] (20 µM)" measured_target="Clostridium sporogenes DSM 1664" value_reported=1.02
compound="CC#C[C@]1(O)CC[C@H]2[C@@H]3CCC4=CC(=O)CCC4=C3[C@@H](c3ccc(N(C)C)cc3)C[C@@]21C [Mifepristone] (20 µM)" measured_target="Clostridium sporogenes DSM 1664" value_reported=1.19
compound="Cn1c(=O)cc(N2CCC[C@@H](N)C2)n(Cc2ccccc2C#N)c1=O [Alogliptin benzoate] (20 µM)" measured_target="Clostridium sporogenes DSM 1664" value_reported=1.06

Which growth reading was recorded for the compound CCc1oc2ccccc2c1C(=O)c1ccc(O)cc1 [Benzarone] (20 µM) ?
1

# growth lookup, item COc1ccc2[nH]c([S+]([O-])Cc3ncc(C)c(OC)c3C)nc2n1 (stereo not drawn) [Tenatoprazole] (20 µM)
1

====

# Test system: Ruminococcus gnavus DSM 108212
# test name: growth (OD595) fold change vs plate DMSO controls (fold change (ratio)); higher = more growth
# conditions: incubation time: 27 h, anaerobic, 37 °C
Where a name gives a salt, the structure may show the parent alone.
Measured growth values are reported for all entries that follow.
// return a plain number; no unit text

These recorded examples may help you get a feel for the data.
compound="COCCCOc1ccnc(C[S+]([O-])c2nc3ccccc3[nH]2)c1C (centres undefined) [Rabeprazole sodium salt] (20 µM)" value_reported=1.26
compound="CO[C@@]1(NC(=O)Cc2cccs2)C(=O)N2C(C(=O)O)=C(COC(N)=O)CS[C@@H]21 [Cefoxitin sodium salt] (20 µM)" value_reported=0
compound="Nc1ccc(C(=O)O)c(O)c1 [Aminosalicylic acid] (20 µM)" value_reported=0.97
compound="C[C@@H]1C[C@H]2[C@@H]3C[C@H](F)C4=CC(=O)C=C[C@]4(C)[C@@]3(F)[C@@H](O)C[C@]2(C)[C@@]1(O)C(=O)CO [Flumethasone] (20 µM)" value_reported=1.2
compound="O=C(Cn1c(=O)sc2ccc(Cl)cc21)N1CCN(CCO)CC1 [Tiaramide Hydrochloride] (20 µM)" value_reported=0.982

Which growth reading was recorded for the compound C[C@]12CC[C@@H]3c4ccc(O)cc4C[C@@H](CCCCCCCCC[S+]([O-])CCCC(F)(F)C(F)(F)F)[C@H]3[C@@H]1CC[C@@H]2O (some centres undefined) [Fulvestrant] (20 µM) ?
1.13

State the recorded growth for this entry: N=C(NCCCCCCNC(=N)NC(=N)Nc1ccc(Cl)cc1)NC(=N)Nc1ccc(Cl)cc1 [Chlorhexidine] (20 µM)
0.0252

// query growth value for entry CCCNC(C)(C)C(=O)Nc1ccccc1C [Quatacaine] (20 µM)
0.952

Fill blank: measured growth of the compound COc1ccc(OC)c(C(O)CNC(=O)CN)c1 (centres undefined) [Midodrine hydrochloride] (20 µM) is ____.
0.949

What value of growth has been reported for the following compound? CCCSc1nc(N[C@@H]2C[C@H]2c2ccc(F)c(F)c2)c2nnn([C@@H]3C[C@H](OCCO)[C@@H](O)[C@H]3O)c2n1 [Ticagrelor] (20 µM)
1.03

Which growth value belongs to NCC[C@H](O)C(=O)N[C@@H]1C[C@H](N)[C@@H](O[C@H]2O[C@H](CN)[C@@H](O)[C@H](O)[C@H]2O)[C@H](O)[C@H]1O[C@H]1O[C@H](CO)[C@@H](O)[C@H](N)[C@H]1O [Amikacin hydrate] (20 µM) ?
0.735

Please report the recorded growth for CCC(C)(C)c1ccc(CC(C)CN2C[C@@H](C)O[C@@H](C)C2)cc1 (some centres undefined) [Amorolfine hydrochloride] (20 µM) .
0.849

Quick check: growth of CCc1oc2ccccc2c1C(=O)c1ccc(O)cc1 [Benzarone] (20 µM) ?
1.11

What does the record list as growth for COc1cc(NC(C)CCCN)c2ncccc2c1 (centres undefined) [Primaquine diphosphate] (20 µM) ?
0.905

====

# Test system: Clostridium sporogenes DSM 1664
# test name: growth (OD595) fold change vs plate DMSO controls (fold change (ratio)); higher = more growth
# conditions: incubation time: 27 h, anaerobic, 37 °C
Counter-ions that a name gives are not always drawn.
The entries below come with measured growth values attached.
Lab note: record just the number, no unit beside it.

compound="OC[C@@H](O)[C@H](O)[C@@H](O)CO [Xylitol] (50 µM)" value_reported=1

# query: growth of entry CNCCCC1c2ccccc2C=Cc2ccccc21 [Protriptyline hydrochloride] (20 µM)
0.921

Please give the measured growth for this compound: COc1ccccc1Oc1c(NS(=O)(=O)c2ccc(C(C)(C)C)cc2)nc(-c2ncccn2)nc1OCCO [Bosentan] (20 µM)
1.15

# input compound: NS(=O)(=O)c1cc(C(=O)O)cc(N2CCCC2)c1Oc1ccccc1 [Piretanide] (20 µM) ; wanted: its growth
1.09

Return reported growth; argument: Cc1cccc(C)c1NC(=O)CC12CCCN1CCC2 [Pilsicainide Hydrochloride] (20 µM)
0.937

// growth lookup, key: Cc1cn([C@H]2C[C@H](N=[N+]=[N-])[C@@H](CO)O2)c(=O)[nH]c1=O [Zidovudine] (20 µM)
0.921

====

Entries and their fold change of Cadaverine concentration
# System: Escherichia coli IAI1
# test name: fold change of Cadaverine concentration vs plate DMSO controls (fold change (ratio)); higher = more amine produced, active = hit call of the paper (significant change in both replicates, either direction)
# conditions: incubation time: 27 h, anaerobic, 37 °C
Give the value as a plain number.

molecule="CCCc1nn(C)c2c(=O)[nH]c(-c3cc(S(=O)(=O)N4CCN(C)CC4)ccc3OCC)nc12 [Sildenafil] (20 µM)" value_reported=0.87

Consider the molecule Cc1ccc(C(C)NC(=O)[C@@H](NC(=O)OC(C)C)C(C)C)cc1 (some centres undefined) (20 µM) and give its measured fold change of Cadaverine concentration.
1.03

Which measured fold change of Cadaverine concentration value corresponds to Cc1c(N)c(=O)n(-c2ccccc2)n1C [Ampyrone] (20 µM) ?
1.03

// fold change of Cadaverine concentration lookup, key: COCCOC(=O)C1=C(C)NC(C)=C(C(=O)OC/C=C/c2ccccc2)C1c1cccc([N+](=O)[O-])c1 (centres undefined) [Cilnidipine] (20 µM)
0.982

====

Measured fold change of Histamine concentration, listed per entry for reference.
# Tested on: Klebsiella aerogenes DSM 30053
# test name: fold change of Histamine concentration vs plate DMSO controls (fold change (ratio)); higher = more amine produced, active = hit call of the paper (significant change in both replicates, either direction)
# conditions: incubation time: 27 h, anaerobic, 37 °C
Counter-ions that a name gives are not always drawn.
Give the figure by itself; no unit, no explanation.

compound="CN(C)c1ccc(O)c2c1C[C@H]1C[C@H]3[C@H](N(C)C)C(=O)C(C(N)=O)=C(O)[C@@]3(O)C(=O)C1=C2O [Minocycline hydrochloride] (20 µM)" value_reported=0.996

// returns reported fold change of Histamine concentration for input CCOc1ccc2c(c1)C(C)=CC(C)(C)N2 [Ethoxyquin] (20 µM)
1.07

Which value of fold change of Histamine concentration has been reported for COc1cccc2c1C(=O)c1c(O)c3c(c(O)c1C2=O)C[C@@](O)(C(=O)CO)C[C@@H]3O[C@H]1C[C@H](N)[C@H](O)[C@H](C)O1 [Doxorubicin hydrochloride] (20 µM) in the records?
1.04

Bench note: what fold change of Histamine concentration did CC(=O)Nc1ccc(OCC(O)CNC(C)C)cc1 (stereo not drawn) [Practolol] (20 µM) show?
1.03

Name the recorded fold change of Histamine concentration for Cc1ccnc2c1NC(=O)c1cccnc1N2C1CC1 [Nevirapine] (20 µM) .
0.914

Fill in the blank: the reported fold change of Histamine concentration of CCCOc1ccc2[nH]c(NC(=O)OC)nc2c1 [Oxibendazol] (20 µM) is ____.
1.04

Which measured fold change of Histamine concentration value corresponds to CC1CS(=O)(=O)CCN1/N=C/c1ccc([N+](=O)[O-])o1 (stereo not drawn) [Nifurtimox] (20 µM) ?
0.593

Looking for the measured fold change of Histamine concentration of CCC1(C)CC(=O)NC1=O (stereo not drawn) [Ethosuximide] (20 µM) , can you help?
0.991
